target: SARS-CoV-2 3CL^pro (Severe acute respiratory syndrome coronavirus 2); assay: biochemical
pIC50: −log10 of the molar value.
Parameter threshold = 5. Response is TRUE when pIC50 meets or exceeds it, else FALSE.

{"compound": "CC(C)(C)[C@]1(O)CC2OC(=O)CC23C(=O)OC2OC(=O)[C@H](O)C231 (stereo partly shown) [bilobalide]", "group.label": "FALSE"}
{"compound": "C[C@@H]1O[C@@H](Oc2c(-c3ccc(O)c(O)c3)oc3cc(O)cc(O)c3c2=O)[C@H](O)[C@H](O)[C@H]1O", "group.label": "FALSE"}
{"compound": "COc1ccc(-c2cc(=O)c3c(O)cc(O)c(-c4cc(-c5cc(=O)c6c(O)cc(O)cc6o5)ccc4OC)c3o2)cc1", "group.label": "TRUE"}
{"compound": "C[C@@H]1C(=O)O[C@H]2C[C@@]34[C@H]5C[C@@H](C(C)(C)C)[C@]36[C@@H](OC(=O)[C@@H]6O)O[C@@]4(C(=O)O5)[C@]21O [ginkgolide A]", "group.label": "FALSE"}
{"compound": "COc1cc(-c2oc3cc(O)cc(O)c3c(=O)c2O)ccc1O", "group.label": "FALSE"}
{"compound": "COc1cc(O)c2c(=O)cc(-c3ccc(OC)c(-c4c(O)cc(O)c5c(=O)cc(-c6ccc(O)cc6)oc45)c3)oc2c1", "group.label": "TRUE"}
{"compound": "O=c1c(O)c(-c2ccc(O)cc2)oc2cc(O)cc(O)c12", "group.label": "FALSE"}
